# Test system: DU-145 prostate
# EXPERIMENTAL PROTOCOL: NCI-60 one-dose screen, 48 h (100 = growth as untreated, 0 = no growth, -100 = all killed)
# CONDITION SUMMARY: 10 µM unless noted
# Procedure: Cells are grown in 96 well plates and exposed to the test compound for 48 hours. Compounds are tested at a single concentration, which is 10^-5 M for most compounds. The reported endpoint is percent growth (GI% or GIPRCNT), where numbers from 0 - 100% represent growth inhibition, and numbers from -100% - 0 represent cell death. For example, a value of 40 represents 60% growth inhibition. A value of 0 means no net growth occurred over the course of the experiment. […]
This is part of a sample that, as a whole, favours compounds with a hit. Of some 83,000 tested, about 20% had one in any assay.
What growth was measured for each of the following?
Could you give me the number in %? Just the number is fine.

Write down the reported growth of O=C(Nc1cc(Cl)cc(Cl)c1)Nc1nc2ccc([N+](=O)[O-])cc2s1 , test system: DU-145 prostate. 16.9

DU-145 prostate / growth / CN(c1ccc(Cl)cc1)S(=O)(=O)c1ccc(-c2cnc(C3CC3)o2)cc1 : value? 15.9

// lookup growth | system=DU-145 prostate | key= COc1ccc(OC)c(NC2=C(Cl)C(=O)C(C)=C(C)C2=O)c1 104

Notebook entry, DU-145 prostate assay: growth of CC1CCN(S(=O)(=O)c2ncsc2-c2ccccc2)CC1 = ? 92

Entry C#C[C@]1(O)CC[C@H]2[C@@H]3CC=C4c5sc(-c6ccccn6)nc5CC[C@]4(C)[C@H]3CC[C@@]21C , system DU-145 prostate: what growth was measured? 90.2

Give recorded growth with DU-145 prostate for the following molecule: O=C(NNc1nc2cc(F)c(F)cc2n2cccc12)c1cccnn1 24.3

Checklist item: growth tested on DU-145 prostate, entry CCOC(=O)c1c(NC(=O)c2ccc(C(C)(C)C)cc2)sc2cc(OCCN3CCCCC3)ccc12 , value? 71.5

Lab request: please report growth under test system DU-145 prostate for CCOC(=O)c1nn(-c2ccc(C)cc2)c(=O)c2c(N)c(C#N)c(-c3ccc(OC)cc3)cc12 109

What measured growth is associated with C#C[C@]1(O)CC[C@H]2[C@@H]3CC=C4c5sc(Nc6cc(OC)ccc6OC)nc5CC[C@]4(C)[C@H]3CC[C@@]21C on DU-145 prostate? 43.8
